SYSTEM TESTED: Focal Adhesion Kinase (FAK) (Homo sapiens, UniProt Q05397)
Sequence (Q05397 384-706): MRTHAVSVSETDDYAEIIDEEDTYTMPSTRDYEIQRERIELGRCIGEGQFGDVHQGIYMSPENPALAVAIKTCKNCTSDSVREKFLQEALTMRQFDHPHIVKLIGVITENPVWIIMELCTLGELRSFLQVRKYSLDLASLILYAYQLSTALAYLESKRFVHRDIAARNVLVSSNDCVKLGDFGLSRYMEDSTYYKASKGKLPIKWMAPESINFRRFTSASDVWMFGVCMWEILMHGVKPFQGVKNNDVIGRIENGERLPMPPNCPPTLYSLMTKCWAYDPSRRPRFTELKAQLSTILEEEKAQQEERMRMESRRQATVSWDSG
PROCEDURE TEXT: FAK assay system (Focal Adhesion Kinase inhibition)
Type: biochemical
CONDITIONS USED: read-out: FAK IC50
PROPERTY LABEL: log10 IC50 (log10 of the value in nM)
Note: values are log10 of IC50 expressed in nM.

Previously resolved entries follow.
[
  {
    "COMPOUND": "COc1cc(N2CCN(C)CC2)ccc1Nc1ncc(Cl)c(Nc2cccc3c2C(=O)N(C)C3)n1 [Example 12-2]",
    "log10 IC50": 0.20
  },
  {
    "COMPOUND": "CCCS(=O)(=O)c1ccccc1Nc1nc(Nc2cc(N3CCOCC3)ccc2OC)ncc1Cl [Example 26-17]",
    "log10 IC50": 1.23
  },
  {
    "COMPOUND": "CNS(=O)(=O)c1ccccc1Nc1nc(Nc2cc(OC)c(OC)cc2C)ncc1Br [Example 3-17]",
    "log10 IC50": 0.45
  },
  {
    "COMPOUND": "CNC(=O)c1ccccc1Nc1nc(Nc2cc(N3CCC(N4CCCCC4)CC3)ccc2OC)ncc1Cl [Example 7-24]",
    "log10 IC50": 0.71
  },
  {
    "COMPOUND": "CNS(=O)(=O)c1ccccc1Nc1nc(Nc2cc(OC)ccc2OC)ncc1Br [Example 3-15]",
    "log10 IC50": 0.85
  }
]

Query: Find log10 IC50 (Focal Adhesion Kinase (FAK) (Homo sapiens, UniProt Q05397)) for the entry CNS(=O)(=O)c1ccccc1Nc1nc(Nc2cccc3c2ccn3CCCN2CCOCC2)ncc1Br [Example 3-45]
Response: -0.05

Query: Lab note: need log10 IC50 for CCC(C)NS(=O)(=O)c1ccccc1Nc1nc(Nc2ccc(N3CCN(C)CC3)cc2OC)ncc1Cl (stereo not shown) [Example 21-1] on Focal Adhesion Kinase (FAK) (Homo sapiens, UniProt Q05397), anyone have it?
Response: 0.00

Query: State its log10 IC50 on Focal Adhesion Kinase (FAK) (Homo sapiens, UniProt Q05397): CNS(=O)(=O)c1ccccc1Nc1nc(Nc2ccc(N3CCC(C(N)=O)CC3)cc2OC)ncc1Br [Example 3-43]
Response: 0.75

Query: Record CCCS(=O)(=O)c1ccccc1Nc1nc(Nc2ccc(OCCN3CCCC3=O)cc2OC)ncc1Cl [Example 26-18] : what is its log10 IC50 with Focal Adhesion Kinase (FAK) (Homo sapiens, UniProt Q05397)?
Response: 0.11

Query: Which measured log10 IC50 belongs to CNC(=O)c1c(C)cccc1Nc1nc(Nc2ccc(N3CCC(N4CCCCC4)CC3)cc2OC)ncc1Cl [Example 10-2] , tested on Focal Adhesion Kinase (FAK) (Homo sapiens, UniProt Q05397)?
Response: 1.41

Query: Test system Focal Adhesion Kinase (FAK) (Homo sapiens, UniProt Q05397); read-out log10 IC50; what value for CNC(=O)c1ccccc1Nc1nc(Nc2ccc(N3CCC(N4CCCCC4)CC3)cc2OC)ncc1Cl [Example 7-1] ?
Response: 0.67

Query: Hello, I am looking for reported log10 IC50 with Focal Adhesion Kinase (FAK) (Homo sapiens, UniProt Q05397) for COc1cc(OC)c(OC)cc1Nc1ncc(Cl)c(Nc2ccccc2S(=O)(=O)C(C)C)n1 [Example 28-30] . Could you help?
Response: 0.36

Query: Query the reported log10 IC50 for Focal Adhesion Kinase (FAK) (Homo sapiens, UniProt Q05397); item: CNC(=O)c1ccccc1Nc1nc(Nc2cc(N3CCN(C)CC3)ccc2OC)ncc1Cl [Example 7-22]
Response: 1.40

Query: Give the reported log10 IC50 for CNS(=O)(=O)c1ccccc1Nc1nc(Nc2cccc3[nH]ccc23)ncc1Br [Example 3-11] (system: Focal Adhesion Kinase (FAK) (Homo sapiens, UniProt Q05397)).
Response: 0.95

Query: # get_value(readout= log10 IC50, system= Focal Adhesion Kinase (FAK) (Homo sapiens, UniProt Q05397)) for CNS(=O)(=O)c1ccccc1Nc1nc(Nc2cc(OC3CCN(C(C)=O)CC3)ccc2OC)ncc1Br [Example 3-75]
Response: 1.86

Query: Find the measured log10 IC50: item CNS(=O)(=O)c1ccccc1Nc1nc(Nc2ccc(OC3CCN(C)CC3)cc2OC)ncc1Br [Example 3-33] , target or system Focal Adhesion Kinase (FAK) (Homo sapiens, UniProt Q05397).
Response: 0.46

====

Items are presented alongside their recorded pIC50.
SYSTEM TESTED: Focal Adhesion Kinase (FAK) (Homo sapiens, UniProt Q05397)
PROCEDURE TEXT: FAK assay system (Focal Adhesion Kinase inhibition)
Type: biochemical
CONDITIONS USED: read-out: FAK IC50
Just so you know, pIC50 here is -log10 of the concentration in molar units; reply with that number alone.

Consider the reported pIC50 for these compounds:
[
  {
    "COMPOUND": "CNC(=O)c1c(C)cccc1Nc1nc(Nc2ccc(N3CCOCC3)cc2OC)ncc1Cl [Example 10-3]",
    "pIC50": 7.64
  },
  {
    "COMPOUND": "COc1cc(N2CCC(N3CCOCC3)CC2)ccc1Nc1ncc(Cl)c(Nc2ccccc2S(=O)(=O)C(C)C)n1 [Example 28-13]",
    "pIC50": 8.11
  },
  {
    "COMPOUND": "COc1cc(N2CCOCC2)ccc1Nc1ncc(Cl)c(Nc2ccccc2S(=O)(=O)C2CCCCC2)n1 [Example 34-2]",
    "pIC50": 7.96
  },
  {
    "COMPOUND": "COc1cc(N2CCC(O)CC2)ccc1Nc1ncc(Cl)c(Nc2cccc3c2C(=O)N(C)C3)n1 [Example 12-3]",
    "pIC50": 8.64
  },
  {
    "COMPOUND": "CNS(=O)(=O)c1ccccc1Nc1nc(Nc2cc(OC3CCN(C)CC3)ccc2OC)ncc1Br [Example 3-76]",
    "pIC50": 7.82
  },
  {
    "COMPOUND": "CNS(=O)(=O)c1ccccc1Nc1nc(Nc2cc(C(=O)N3CCNCC3)ccc2C)ncc1Br [Example 3-24]",
    "pIC50": 7.19
  },
  {
    "COMPOUND": "CCCS(=O)(=O)c1ccccc1Nc1nc(Nc2ccc(N3CCN(C(C)=O)C(C)(C)C3)cc2OC)ncc1Cl [Example 26-11]",
    "pIC50": 8.36
  },
  {
    "COMPOUND": "CNS(=O)(=O)c1ccccc1Nc1nc(Nc2cc(N3CCC(N4CCCCC4)CC3)ccc2OC)ncc1Cl [Example 20-32]",
    "pIC50": 7.89
  }
]

Here's the next entry for you.
Query: Which pIC50 is reported with Focal Adhesion Kinase (FAK) (Homo sapiens, UniProt Q05397) for this entry: CCCS(=O)(=O)c1ccccc1Nc1nc(Nc2ccc(NCCN3CCOCC3)cc2OC)ncc1Cl [Example 26-16] ?
Response: 8.05

====

SYSTEM TESTED: FAK (Mus musculus, UniProt P34152)
Sequence (P34152 2-1052): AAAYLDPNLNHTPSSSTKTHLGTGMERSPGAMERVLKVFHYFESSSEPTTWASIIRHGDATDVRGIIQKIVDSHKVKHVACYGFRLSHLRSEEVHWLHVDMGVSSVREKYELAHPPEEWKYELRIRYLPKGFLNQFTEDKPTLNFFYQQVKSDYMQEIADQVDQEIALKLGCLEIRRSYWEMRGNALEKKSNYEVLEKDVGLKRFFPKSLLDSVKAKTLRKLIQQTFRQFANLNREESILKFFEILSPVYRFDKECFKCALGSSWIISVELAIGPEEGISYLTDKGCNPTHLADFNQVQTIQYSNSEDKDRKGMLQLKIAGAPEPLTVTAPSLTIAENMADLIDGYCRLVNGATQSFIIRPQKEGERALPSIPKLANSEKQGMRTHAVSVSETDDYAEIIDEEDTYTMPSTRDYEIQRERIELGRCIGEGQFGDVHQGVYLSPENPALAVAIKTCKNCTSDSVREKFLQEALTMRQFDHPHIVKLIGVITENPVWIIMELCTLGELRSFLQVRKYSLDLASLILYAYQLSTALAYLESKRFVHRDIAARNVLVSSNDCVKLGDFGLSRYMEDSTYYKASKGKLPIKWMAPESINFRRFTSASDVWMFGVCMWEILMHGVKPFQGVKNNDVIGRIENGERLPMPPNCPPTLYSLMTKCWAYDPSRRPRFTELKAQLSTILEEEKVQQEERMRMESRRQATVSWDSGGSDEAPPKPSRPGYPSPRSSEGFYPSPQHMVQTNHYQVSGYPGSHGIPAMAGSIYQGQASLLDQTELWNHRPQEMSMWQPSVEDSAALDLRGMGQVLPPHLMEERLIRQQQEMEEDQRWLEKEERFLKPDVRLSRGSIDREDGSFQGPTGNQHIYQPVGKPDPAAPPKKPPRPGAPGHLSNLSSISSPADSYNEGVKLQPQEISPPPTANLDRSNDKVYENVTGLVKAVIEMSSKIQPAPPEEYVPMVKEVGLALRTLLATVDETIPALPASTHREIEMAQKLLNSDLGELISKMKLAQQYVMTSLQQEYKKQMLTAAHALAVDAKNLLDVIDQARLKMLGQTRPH
PROCEDURE TEXT: Phos IC50 (phosphorylation)
A collection of molecules and their measured pIC50
The read-out pIC50 is expressed as -log10 of concentration in moles per litre.

Examples from the recorded data:
[
  {
    "MOLECULE": "CNS(=O)(=O)c1ccccc1Nc1nc(Nc2ccc(N(CCOC)CCOC)cc2OC)ncc1Br",
    "OBSERVED VALUE": 6.46
  },
  {
    "MOLECULE": "COc1cc(N2CCOCC2)ccc1Nc1ncc(Cl)c(Nc2ccccc2S(=O)(=O)CC(C)C)n1",
    "OBSERVED VALUE": 7.30
  },
  {
    "MOLECULE": "CCCCc1ccccc1Nc1ncc(Br)c(Nc2ccccc2S(=O)(=O)NC)n1",
    "OBSERVED VALUE": 6.02
  }
]

Query: Recorded pIC50 of CCOc1cc(N2CCOCC2)ccc1Nc1ncc(Br)c(Nc2ccccc2S(=O)(=O)NC)n1 , please.
Response: 7.10

Query: Can you share its pIC50? I mean this molecule: COc1cc(F)ccc1Nc1ncc(Cl)c(Nc2ccccc2S(=O)(=O)NCC(F)(F)F)n1 [Example 16C]
Response: 6.05

Query: So what does the record say about pIC50 for CNS(=O)(=O)c1ccccc1Nc1nc(Nc2ccc(N3CCN(C)CC3)cc2OC)ncc1Br ?
Response: 7.70

Query: Would you mind telling me what pIC50 value was observed for CNS(=O)(=O)c1ccccc1Nc1nc(Nc2ccc(OC3CCNCC3)cc2OC)ncc1Br ?
Response: 5.89

Query: pIC50 lookup needed for COc1cc(N2CCOCC2)ccc1Nc1ncc(Cl)c(Nc2ccccc2S(=O)(=O)NC(C)C)n1 , thanks.
Response: 7.52

Query: Which measured pIC50 value corresponds to CC(C)NS(=O)(=O)c1ccccc1Nc1nc(Nc2ccc(OCCN3CCOCC3)cc2F)ncc1Cl ?
Response: 7.00

Query: Please report the recorded pIC50 for COc1cc(N2CCC(OC)C2)ccc1Nc1ncc(Cl)c(Nc2ccccc2S(=O)(=O)C(C)C)n1 (stereo not shown) .
Response: 6.80

Query: Any idea what pIC50 was measured for CCC(C)NS(=O)(=O)c1ccccc1Nc1nc(Nc2ccc(OC3CCN(C)CC3)cc2OC)ncc1Cl (stereo not shown) ?
Response: 6.52

Query: Which pIC50 is reported for this molecule? CCNC(=O)c1ccccc1Nc1nc(Nc2ccc(N3CCC(N4CCCC4)CC3)cc2OC)ncc1Cl
Response: 6.70

Query: For COc1cc(N2CCOCC2)ccc1Nc1ncc(Cl)c(Nc2ccccc2C(=O)NC(C)C)n1 , what is its reported pIC50?
Response: 5.70

Query: Consider the molecule CCS(=O)(=O)c1ccccc1Nc1nc(Nc2ccc(N3CCCC(C(N)=O)C3)cc2OC)ncc1Cl (stereo not shown) and give its measured pIC50.
Response: 7.10
